Each entry below carries its reported cytotoxicity as a percentage of survived cells.
Test system: CVI-P cells
Experiment Summary: Cytotoxicity of amphiphile/DNA complexes, percentage of survived cells
Assay Context: amphiphile/DNA +/− charge ratio 0.5
Property Label: cytotoxicity as a percentage of survived cells

[[record]]
smiles_representation = "CCCCCCCCCCOC(=O)C1=C(C[N+](C)(C)CCCCCCCC)NC(C[N+](C)(C)CCCCCCCC)=C(C(=O)OCCCCCCCCCC)C1c1ccccc1.[Br-].[Br-]"
recorded_result = "105,03%"

[[record]]
smiles_representation = "Br.CCCCCCCCCCCCCCOC(=O)C1=C(C)NC(C)=C(C(=O)OCCCCCCCCCCCCCC)C1c1ccc[n+](CCCCCCCCC)c1.[Br-]"
recorded_result = "103,98%"

[[record]]
smiles_representation = "CCCCCCCCCCCCOC(=O)C1=C(C)NC(C)=C(C(=O)OCCCCCCCCCCCC)C1c1ccc[n+](C)c1.I.[I-]"
recorded_result = "100,21%"


----------
Tested on: CVI-P cells
Experiment Summary: Cytotoxicity of amphiphile/DNA complexes, percentage of survived cells
Assay Context: amphiphile/DNA +/− charge ratio 0.5
Each entry below carries its recorded cytotoxicity as a percentage of survived cells.
Property Label: cytotoxicity as a percentage of survived cells

[[record]]
smiles_representation = "CCCCCCCCCCCCCCCC(=O)OCCOC(=O)C1=C(C)NC(C)=C(C(=O)OCCOC(=O)CCCCCCCCCCCCCCC)C1c1ccc[n+](C)c1.I.[I-]"
test_target = "CVI-P cells"
recorded_result = "94,43%"

[[record]]
smiles_representation = "CCCCCCCCCCCCCCCCOC(=O)C1=C(C)NC(C)=C(C(=O)OCCCCCCCCCCCCCCCC)C1c1ccc[n+](C)c1.I.[I-]"
test_target = "CVI-P cells"
recorded_result = "102,34%"

[[record]]
smiles_representation = "Br.CCCCCCCCCCCCCCCC[n+]1cccc(C2C(C(=O)OCCCCCCCCCCCCCC)=C(C)NC(C)=C2C(=O)OCCCCCCCCCCCCCC)c1.[Br-]"
test_target = "CVI-P cells"
recorded_result = "105,14%"

[[record]]
smiles_representation = "CCCCCCCCCCOC(=O)C1=C(C[n+]2ccccc2)NC(C[n+]2ccccc2)=C(C(=O)OCCCCCCCCCC)C1c1ccccc1.[Br-].[Br-]"
test_target = "CVI-P cells"
recorded_result = "95,71%"

[[record]]
smiles_representation = "CCCCCCCCCCCCCCCCOC(=O)C1=C(C[n+]2ccccc2)NC(C[n+]2ccccc2)=C(C(=O)OCCCCCCCCCCCCCCCC)C1c1ccccc1.[Br-].[Br-]"
test_target = "CVI-P cells"
recorded_result = "92,82%"

[[record]]
smiles_representation = "CCCCCCCCCCCCCCOC(=O)C1=C(C)NC(C)=C(C(=O)OCCCCCCCCCCCCCC)C1c1ccc[n+](C)c1.I.[I-]"
test_target = "CVI-P cells"
recorded_result = "94,05%"

[[record]]
smiles_representation = "CCCCCCCCCCCCCCOC(=O)C1=C(C[n+]2ccccc2)NC(C[n+]2ccccc2)=C(C(=O)OCCCCCCCCCCCCCC)C1c1ccccc1.[Br-].[Br-]"
test_target = "CVI-P cells"
recorded_result = "96,17%"


----------
# maps each entry to its cytotoxicity as a percentage of survived cells
System: CVI-P cells
Experiment Summary: Cytotoxicity of amphiphile/DNA complexes, percentage of survived cells
Assay Context: amphiphile/DNA +/− charge ratio 2
Property Label: cytotoxicity as a percentage of survived cells

[[record]]
compound = "CCCCCCCCCCCCCCCCOC(=O)C1=C(C)NC(C)=C(C(=O)OCCCCCCCCCCCCCCCC)C1c1ccc[n+](C)c1.I.[I-] [VII]"
test_target = "CVI-P cells"
recorded_result = "103,62%"

[[record]]
compound = "CCCCCCCCCCCCOC(=O)C1=C(C[n+]2ccccc2)NC(C[n+]2ccccc2)=C(C(=O)OCCCCCCCCCCCC)C1c1ccccc1.[Br-].[Br-] [XXIII]"
test_target = "CVI-P cells"
recorded_result = "93,48%"

[[record]]
compound = "CCCCCCCCCCCCCCCCOC(=O)C1=C(C)NC(C)=C(C(=O)OCCCCCCCCCCCCCCCC)C1c1ccc[n+](CC(N)=O)c1.I.[I-] [XX]"
test_target = "CVI-P cells"
recorded_result = "59,96%"

[[record]]
compound = "Br.CCCCCCCCCCCCCCOC(=O)C1=C(C)NC(C)=C(C(=O)OCCCCCCCCCCCCCC)C1c1ccc[n+](CCCCCCCCC)c1.[Br-] [XIV]"
test_target = "CVI-P cells"
recorded_result = "51,04%"

[[record]]
compound = "CCCCCCCCCCCCOC(=O)C1=C(C)NC(C)=C(C(=O)OCCCCCCCCCCCC)C1c1ccc[n+](C)c1.I.[I-] [V]"
test_target = "CVI-P cells"
recorded_result = "71,79%"

[[record]]
compound = "CCCCCCCCCCCCCCCC(=O)OCCOC(=O)C1=C(C)NC(C)=C(C(=O)OCCOC(=O)CCCCCCCCCCCCCCC)C1c1ccc[n+](C)c1.I.[I-] [I]"
test_target = "CVI-P cells"
recorded_result = "91,92%"

[[record]]
compound = "CCCCCCCCCCOC(=O)C1=C(C[N+](C)(C)CCCCCCCC)NC(C[N+](C)(C)CCCCCCCC)=C(C(=O)OCCCCCCCCCC)C1c1ccccc1.[Br-].[Br-] [XXVII]"
test_target = "CVI-P cells"
recorded_result = "88,41%"

[[record]]
compound = "CCCCCCCCCCCCCCCC(=O)OCCCOC(=O)C1=C(C)NC(C)=C(C(=O)OCCCOC(=O)CCCCCCCCCCCCCCC)C1c1ccc[n+](C)c1.I.[I-] [III]"
test_target = "CVI-P cells"
recorded_result = "72,04%"

[[record]]
compound = "CCCCCCCCCCCCCCOC(=O)C1=C(C[n+]2ccccc2)NC(C[n+]2ccccc2)=C(C(=O)OCCCCCCCCCCCCCC)C1c1ccccc1.[Br-].[Br-] [XXIV]"
test_target = "CVI-P cells"
recorded_result = "86,72%"

[[record]]
compound = "CCCCCCCCCCOC(=O)C1=C(C[n+]2ccccc2)NC(C[n+]2ccccc2)=C(C(=O)OCCCCCCCCCC)C1c1ccccc1.[Br-].[Br-] [XXII]"
test_target = "CVI-P cells"
recorded_result = "84,01%"

[[record]]
compound = "CCCCCCCCCCCCCCOC(=O)C1=C(C)NC(C)=C(C(=O)OCCCCCCCCCCCCCC)C1c1ccc[n+](C)c1.I.[I-] [VI]"
test_target = "CVI-P cells"
recorded_result = "90,38%"

[[record]]
compound = "Br.CCCCCCCCCCCCCCCC[n+]1cccc(C2C(C(=O)OC3CC(C)CCC3C(C)C)=C(C)NC(C)=C2C(=O)OC2CC(C)CCC2C(C)C)c1.[Br-] (stereo not shown) [XVIII]"
test_target = "CVI-P cells"
recorded_result = "76,51%"

[[record]]
compound = "Br.CCCCCCCCCCCCCCCC[n+]1cccc(C2C(C(=O)OCCCCCCCCCCCCCC)=C(C)NC(C)=C2C(=O)OCCCCCCCCCCCCCC)c1.[Br-] [XVII]"
test_target = "CVI-P cells"
recorded_result = "88,20%"

[[record]]
compound = "CCCCCCCCCCCCCCCCOC(=O)C1=C(C[n+]2ccccc2)NC(C[n+]2ccccc2)=C(C(=O)OCCCCCCCCCCCCCCCC)C1c1ccccc1.[Br-].[Br-] [XXV]"
test_target = "CVI-P cells"
recorded_result = "101,03%"

[[record]]
compound = "CCCCCCCCCCCCCCCCOCCCOC(=O)C1=C(C)NC(C)=C(C(=O)OCCCOCCCCCCCCCCCCCCCC)C1c1ccc[n+](C)c1.[I-] [II]"
test_target = "CVI-P cells"
recorded_result = "102,9%"

[[record]]
compound = "CCCCCCCC/C=C\\CCCCCCCC(=O)OCC(C[N+](C)(C)C)OC(=O)CCCCCCC/C=C\\CCCCCCCC.[Cl-] (stereo not shown) [DOTAP, reference compound]"
test_target = "CVI-P cells"
recorded_result = "91,87%"


----------
Tested on: CV-1P (African monkey green kidney fibroblasts cells)
Experiment Summary: In vitro transfection of plasmid DNA, β-galactosidase activity per well
Type: cell-based
Assay Context: CVI-P; amphiphile/DNA +/− charge ratio 2
Property Label: transfection efficiency

[[record]]
compound = "CCCCCCCCCCCCOC(=O)C1=C(C[n+]2ccccc2)NC(C[n+]2ccccc2)=C(C(=O)OCCCCCCCCCCCC)C1c1ccccc1.[Br-].[Br-] [XXIII]"
test_target = "CV-1P (African monkey green kidney fibroblasts cells)"
property_label = "transfection efficiency"
recorded_result = "65,5 β-galactosidase units per well"

[[record]]
compound = "CCCCCCCCCCCCCCCCOC(=O)C1=C(C[n+]2ccccc2)NC(C[n+]2ccccc2)=C(C(=O)OCCCCCCCCCCCCCCCC)C1c1ccccc1.[Br-].[Br-] [XXV]"
test_target = "CV-1P (African monkey green kidney fibroblasts cells)"
property_label = "transfection efficiency"
recorded_result = "17,5 β-galactosidase units per well"

[[record]]
compound = "CCCCCCCC/C=C\\CCCCCCCC(=O)OCC(C[N+](C)(C)C)OC(=O)CCCCCCC/C=C\\CCCCCCCC.[Cl-] (stereo not drawn) [DOTAP, reference compound]"
test_target = "CV-1P (African monkey green kidney fibroblasts cells)"
property_label = "transfection efficiency"
recorded_result = "15,58 β-galactosidase units per well"

[[record]]
compound = "CCCCCCCCCCOC(=O)C1=C(C[N+](C)(C)CCCCCCCC)NC(C[N+](C)(C)CCCCCCCC)=C(C(=O)OCCCCCCCCCC)C1c1ccccc1.[Br-].[Br-] [XXVII]"
test_target = "CV-1P (African monkey green kidney fibroblasts cells)"
property_label = "transfection efficiency"
recorded_result = "36,55 β-galactosidase units per well"

[[record]]
compound = "CCCCCCCCCCCCCCOC(=O)C1=C(C)NC(C)=C(C(=O)OCCCCCCCCCCCCCC)C1c1ccc[n+](C)c1.I.[I-] [VI]"
test_target = "CV-1P (African monkey green kidney fibroblasts cells)"
property_label = "transfection efficiency"
recorded_result = "4,82 β-galactosidase units per well"

[[record]]
compound = "CCCCCCCCCCCCCCOC(=O)C1=C(C[n+]2ccccc2)NC(C[n+]2ccccc2)=C(C(=O)OCCCCCCCCCCCCCC)C1c1ccccc1.[Br-].[Br-] [XXIV]"
test_target = "CV-1P (African monkey green kidney fibroblasts cells)"
property_label = "transfection efficiency"
recorded_result = "15,46 β-galactosidase units per well"

